tested on: VZV; test: VZV plaque reduction antiviral assay in WI-38 cell monolayers; assay type: cell-based, varicella zoster virus; conditions: Human alphaherpesvirus 3; VZV strain ELLEN; WI-38 cells; 6-7 days at 37° C.; at least 50% plaque reduction; read-out: ID50 (the source's name)
MEASUREMENT TYPE: IC50

Query: Annotate the compound Nc1ncnc2c1ncn2[C@@H]1C[C@H](CO)[C@H]1CO (relative stereo) with its measured IC50.
Result: 800 to 2000 nM

Query: Annotate the compound O=c1[nH]c(=O)n([C@@H]2C[C@H](CO)[C@H]2CO)cc1I (relative stereo) with its measured IC50.
Result: 14000 to 28000 nM

Query: Annotate the compound Nc1nc2c(ncn2[C@@H]2C[C@H](CO)[C@H]2CO)c(=O)[nH]1 (relative stereo) with its measured IC50.
Result: 200 nM

Query: Annotate the compound O=c1[nH]c(=O)n([C@@H]2C[C@H](CO)[C@H]2CO)cc1/C=C/Br (relative stereo) with its measured IC50.
Result: 30 to 60 nM

Query: Annotate the compound Nc1nc2c(nnn2[C@@H]2C[C@H](CO)[C@H]2CO)c(=O)[nH]1 (relative stereo) with its measured IC50.
Result: 3800 to 38000 nM

Query: Annotate the compound Nc1ccn([C@@H]2C[C@H](CO)[C@H]2CO)c(=O)n1 (relative stereo) with its measured IC50.
Result: 22000 nM
